# assay: Cytotoxicity against mock infected human MT4 cells after 3 days by EGFP fluorescence microscopic analysis
# Format: cell-based
measure: CC50 at 72 h

>>> df
                           query_smiles  measured_value
0  CC(C)c1ccnc(SC(F)(F)c2nc3ccccc3o2)n1       > 98.4 µM
1  FC(F)(Sc1nccc(C2CC2)n1)c1nc2ccccc2o1         77.5 µM
2   Cc1cccc2oc(C(F)(F)Sc3nccc(N)n3)nc12           20 µM
3  Cc1ccnc(SC(F)(F)c2nc3cccc(Cl)c3o2)n1       > 98.4 µM
4    COCc1ccnc(SC(F)(F)c2nc3ccccc3o2)n1       > 98.4 µM
5      Cc1ccnc(SC(F)(F)c2nc3ccccc3o2)n1        > 100 µM

State recorded CC50 at 72 h for all listed compounds.
1. CCc1ccnc(SC(F)(F)c2nc3ccccc3o2)n1
2. Cc1ccnc(S(=O)(=O)C(F)(F)c2nc3ccccc3o2)n1
3. Cc1ccnc(SC(F)(F)c2nc3cccc(C)c3o2)n1
4. CC(=O)Nc1ccnc(SC(F)(F)c2nc3ccccc3o2)n1

1. > 98 µM
2. 61 µM
3. > 98.4 µM
4. > 98.4 µM

State recorded CC50 at 72 h for all listed compounds.
1. Nc1ccnc(SC(F)(F)c2nc3c(Cl)cccc3o2)n1
2. Cc1ccnc(SC(F)(F)c2nc3c(Cl)cccc3o2)n1

1. 28.8 µM
2. > 98.4 µM

====

# assay: Apparent permeability of the compound across human Caco2 cells
# Assay type: ADME, cell-based
# assay_setup: Caco-2
measure: Papp (×10⁻⁶ cm/s)
Numbers only, in ×10⁻⁶ cm/s.

Suppose we examine the compound `Cc1ccnc(SC(F)(F)c2nc3ccccc3o2)n1` ; what Papp value has been reported?
34.6

====

# assay: Metabolic stability of the compound in human liver microsomes after 15 mins
# Type: ADME, Microsome
# assay_setup: read-out: Stability
measure: remaining at 0.25 h (%)
Give bare numbers, in %.

Suppose we examine the compound `Cc1ccnc(SC(F)(F)c2nc3ccccc3o2)n1` ; what remaining at 0.25 h value has been reported?
90

====

# Tested on: Human immunodeficiency virus 1
# assay: Antiviral activity against Human immunodeficiency virus 1 3B infected in human MT4 cells stably transformed with HIV1 LTR-EGFP after 3 days by fluorescence microscopic analysis
# Type: functional, organism-based
# assay_setup: MT4, 72 h
For each record, check the reported EC50: if it is below 200 nM write true, else write false.

>>> df
                               query_smiles  qualitative_label
0      FC(F)(Sc1nccc(C2CC2)n1)c1nc2ccccc2o1               true
1        COCc1ccnc(SC(F)(F)c2nc3ccccc3o2)n1              false
2                 c1cnc(SCc2nc3ccccc3o2)nc1              false
3          Cc1ccnc(SC(F)(F)c2nc3ccccc3o2)n1               true
4  Cc1ccnc(S(=O)(=O)C(F)(F)c2nc3ccccc3o2)n1              false

Kindly review the next molecule as well.
Quick check: does `Nc1ccnc(SC(F)(F)c2nc3ccccc3o2)n1` have EC50 under 200 nM?
false

====

# Tested on: Human immunodeficiency virus 1
# assay: Antiviral activity against Human immunodeficiency virus 1 HXB2 harboring reverse transcriptase K103N and Y181C mutant infected in human MT4 cells stably transformed with HIV1 LTR-EGFP after 3 days by fluorescence microscopic analysis
# Type: functional, organism-based
# assay_setup: Human immunodeficiency virus 1, HXB2, MT4, 72 h
Answer each item with its documented EC50.
Give bare numbers, in µM.

// worked examples, EC50 included
                           query_smiles  measured_value
0      Cc1ccnc(SC(F)(F)c2nc3ccccc3o2)n1              67
1  FC(F)(Sc1nccc(C2CC2)n1)c1nc2ccccc2o1            67.9
2     CCc1ccnc(SC(F)(F)c2nc3ccccc3o2)n1              57
3  Cc1ccnc(SC(F)(F)c2nc3cccc(Cl)c3o2)n1              60
4  Cc1ccnc(SC(F)(F)c2nc3c(Cl)cccc3o2)n1              79

State recorded EC50 for all listed compounds.
1. Cc1ccnc(SC(F)(F)c2nc3cccc(C)c3o2)n1
2. Cc1cc(C)nc(SC(F)(F)c2nc3ccccc3o2)n1

1. 55.4
2. 77.2
